The measured values listed here are drawn from PubChem BioAssay (NCI).

# Tested on: HOP-92 NSCLC
# assayText: NCI tumour cell line growth inhibition, 48 h; in the data active means GI50 below about 0.43 µM; inactive means the rest
Choose the fitting class; nothing outside active, inactive is accepted.

Check out these entries, answers already filled in.
{"givenSmiles": "Cc1cc2c(C)c3cc(C)c(N)cc3nc2cc1N", "class": "inactive"}
{"givenSmiles": "COc1cccc(NC(=O)c2sc3nc4c(cc3c2N)CCCC4)c1", "class": "inactive"}
{"givenSmiles": "Cc1ccc(-c2c(C#N)c(N)nc(N3CCOCC3)c2C#N)o1", "class": "inactive"}
{"givenSmiles": "C[C@H]1[C@H](OC(=O)CCC(=O)O)O[C@@H]2O[C@]3(C)CC[C@H]4[C@H](C)CC[C@@H]1[C@@]24OO3", "class": "active"}

Next item in the queue.
Query: Look up the recorded call for O=C(Nc1ccncc1)C(=O)c1cn(S(=O)(=O)c2ccc(Br)cc2)c2ccccc12 in this test.
Response: inactive

###

compounds and their reported TGI
# System: SR leukemia
# assayText: NCI tumour cell line growth inhibition, 48 h

{"compound": "CC1(C)CC(=O)C2=C(C1)NC(SSC1=C(C#N)C(c3ccccc3)C3=C(CC(C)(C)CC3=O)N1)=C(C#N)C2c1ccccc1 (stereo unspecified)", "TGI": "103 µg/mL"}
{"compound": "CCN(CC)CCNC(=O)c1ccc([N+](=O)[O-])cc1OC", "TGI": "> 100 µM"}
{"compound": "CSc1c(C(=O)Nc2ccc(C)cc2)c(N)nn1-c1ccccc1", "TGI": "> 100 µM"}

Query: Under SR leukemia: TGI value of O=C1CC(=O)N(C2CCCCC2)C(=O)N1c1ccccc1S(=O)(=O)Oc1ccccc1 ?
Response: > 100 µM

###

# Test system: SNB-78 CNS
# assayText: NCI tumour cell line growth inhibition, 48 h
quantity: TGI

Consider the worked cases shown below.
{"compound": "Cc1cc(Br)cc(C)c1NC(=O)C(=O)CC(=O)c1sc(-n2nc(-c3ccccc3)cc2-c2ccccc2)nc1C", "TGI": "> 100 µM"}
{"compound": "Cc1c(NC(=O)C(=O)N=NC(=O)c2ccncc2)c(O)c2ccccc2c1O", "TGI": "39.7 µM"}
{"compound": "CCOC(=O)Cc1c(Cc2[nH]c(C(=O)OCc3ccccc3)c(CC(=O)OCC)c2CC(=O)OCC)[nH]c(C(=O)OCc2ccccc2)c1CC(=O)OCC", "TGI": "> 100 µM"}

Query: Field request: TGI | item: O=C(Cc1ccccc1)NN1C(=O)C(Cl)C1c1cccc(O)c1 (stereo not drawn)
Response: 73.6 µM

Query: Field request: TGI | item: CCOC(=O)/C(C1=N[C@H](C(=O)OCC)CS1)=C(\C)O
Response: > 100 µM

Query: Field request: TGI | item: CCOP(=O)(OCC)C1C(=O)O[C@H]2CCCC[C@@H]12 (stereo partly drawn)
Response: > 100 µM

Query: Field request: TGI | item: COc1ccc(/C=C2/CCCC/C2=N/O)cc1
Response: > 100 µM

Query: Field request: TGI | item: CC(C)=CC(=O)CC(=O)C(=O)Nc1ccc(C)c(C)c1
Response: > 100 µM

Query: Field request: TGI | item: CCOC(=O)c1cccc(=O)c(C(=O)OCC)c1
Response: > 100 µM

Query: Field request: TGI | item: FC(F)(F)P1C2C=CC(CC2)C1(F)F (stereo not drawn)
Response: > 100 µM

Query: Field request: TGI | item: N#Cc1ccccc1NC(=O)C(=O)C(C(=O)c1ccccc1-c1ccccc1)C1OC(=O)c2ccccc21 (stereo not drawn)
Response: 59.9 µM

Query: Field request: TGI | item: CC(=O)Oc1cc(OC(C)=O)c2c(=O)c3ccccc3n(C)c2c1
Response: 84.3 µM

Query: Field request: TGI | item: O=C1CC2CC=C[C@H]3c4cc5c(cc4C(=O)N1C23)OCO5 (stereo partly drawn)
Response: > 50 µM
